tested system: CK1α (Homo sapiens, UniProt P48729+Q96SW2)
Construct: CSNK1A1-HiBit KI HEK293(LgBit) Cells; host or cells: HEK293(LgBit) knock-in cells
Sequence (P48729 whole entry): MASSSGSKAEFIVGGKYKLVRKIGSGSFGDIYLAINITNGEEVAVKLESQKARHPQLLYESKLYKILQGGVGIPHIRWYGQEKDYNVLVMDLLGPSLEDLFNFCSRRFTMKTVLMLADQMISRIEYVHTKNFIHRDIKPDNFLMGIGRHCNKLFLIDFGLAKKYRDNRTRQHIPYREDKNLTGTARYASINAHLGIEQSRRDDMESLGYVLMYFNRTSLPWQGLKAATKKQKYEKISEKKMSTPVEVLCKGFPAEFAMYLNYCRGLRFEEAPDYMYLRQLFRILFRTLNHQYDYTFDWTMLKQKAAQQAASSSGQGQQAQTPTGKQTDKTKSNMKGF
Sequence (Q96SW2 whole entry): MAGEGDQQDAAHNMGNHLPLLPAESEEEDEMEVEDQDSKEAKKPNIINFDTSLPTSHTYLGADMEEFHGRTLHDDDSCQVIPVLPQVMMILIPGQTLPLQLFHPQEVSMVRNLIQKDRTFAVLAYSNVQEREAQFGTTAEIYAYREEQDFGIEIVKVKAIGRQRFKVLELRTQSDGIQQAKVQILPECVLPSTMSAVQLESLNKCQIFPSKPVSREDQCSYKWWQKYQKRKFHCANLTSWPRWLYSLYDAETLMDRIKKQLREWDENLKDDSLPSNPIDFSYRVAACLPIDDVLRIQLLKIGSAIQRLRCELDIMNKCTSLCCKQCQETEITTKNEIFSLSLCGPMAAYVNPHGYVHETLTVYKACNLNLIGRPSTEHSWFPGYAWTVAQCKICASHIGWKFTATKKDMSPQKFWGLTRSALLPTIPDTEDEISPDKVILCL
Sequence (Q16531 whole entry partner): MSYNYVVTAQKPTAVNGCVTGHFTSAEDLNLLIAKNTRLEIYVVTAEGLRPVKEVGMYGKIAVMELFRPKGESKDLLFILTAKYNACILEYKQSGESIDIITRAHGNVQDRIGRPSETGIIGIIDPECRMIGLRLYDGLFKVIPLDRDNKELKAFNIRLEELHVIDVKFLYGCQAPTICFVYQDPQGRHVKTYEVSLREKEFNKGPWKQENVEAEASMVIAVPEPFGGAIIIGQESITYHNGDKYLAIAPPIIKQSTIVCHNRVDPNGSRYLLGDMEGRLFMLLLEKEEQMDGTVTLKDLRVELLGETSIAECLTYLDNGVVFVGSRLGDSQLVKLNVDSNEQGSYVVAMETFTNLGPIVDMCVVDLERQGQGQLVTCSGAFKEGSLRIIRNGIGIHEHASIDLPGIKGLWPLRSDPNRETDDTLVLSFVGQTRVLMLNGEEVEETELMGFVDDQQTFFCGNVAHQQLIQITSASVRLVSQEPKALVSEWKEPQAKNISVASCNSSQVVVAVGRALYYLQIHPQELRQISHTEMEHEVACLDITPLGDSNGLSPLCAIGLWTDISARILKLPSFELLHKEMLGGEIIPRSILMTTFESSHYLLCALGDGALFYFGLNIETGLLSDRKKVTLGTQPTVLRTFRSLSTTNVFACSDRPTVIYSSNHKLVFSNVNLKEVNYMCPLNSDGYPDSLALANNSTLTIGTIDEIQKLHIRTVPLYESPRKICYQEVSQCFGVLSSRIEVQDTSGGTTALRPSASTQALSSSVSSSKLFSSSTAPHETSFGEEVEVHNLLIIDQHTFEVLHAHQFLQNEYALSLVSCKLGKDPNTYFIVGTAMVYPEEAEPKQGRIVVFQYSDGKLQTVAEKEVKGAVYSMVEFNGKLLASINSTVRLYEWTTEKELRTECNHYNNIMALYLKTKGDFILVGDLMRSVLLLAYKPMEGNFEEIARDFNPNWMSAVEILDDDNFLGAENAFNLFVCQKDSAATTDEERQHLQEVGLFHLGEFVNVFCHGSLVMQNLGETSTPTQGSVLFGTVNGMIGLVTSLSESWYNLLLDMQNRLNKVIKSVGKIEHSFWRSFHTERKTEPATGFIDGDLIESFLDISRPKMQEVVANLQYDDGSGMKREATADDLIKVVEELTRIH
experiment notes: HiBiT degradation assay, CK1α, Procedure A
Format: cell-based
measurement setup: six hours
measured metric: CK1α Ymin

Some compounds with recorded CK1α Ymin:
Q: Requested field: CK1α Ymin. Item: CC(=O)Nc1ccc(-c2nc(-c3ccc4c(c3)CN(C3CCC(=O)NC3=O)C4=O)cn2C)cc1 (centres unmarked)
Ans: C (C = 0-10% remaining)

Q: Could you do the same for Cn1cc(-c2ccc3c(c2)CN(C2CCC(=O)NC2=O)C3=O)nc1-c1ccc(O)cc1 (centres unmarked) , please?
Ans: C (C = 0-10% remaining)

Q: Could you do the same for Cn1cnc(-c2ccc3c(c2)CN(C2CCC(=O)NC2=O)C3=O)c1-c1cccs1 (centres unmarked) , please?
Ans: C (C = 0-10% remaining)

Q: Could you do the same for COc1ccc(-c2nc(-c3ccc4c(c3)CN(C3CCC(=O)NC3=O)C4=O)cn2C)cc1 (centres unmarked) , please?
Ans: C (C = 0-10% remaining)

Further cases:
Q: Requested field: CK1α Ymin. Item: Cn1cc(-c2ccc3c(c2)CN(C2CCC(=O)NC2=O)C3=O)nc1-c1cccc2c1CCC2 (centres unmarked)
Ans: C (C = 0-10% remaining)

These entries and their values trace back to patent US20240158370A1.
